src = ChEMBL document CHEMBL3433997

Reported values of inhibition for individual entries
molecular target: Hexose transporter 1 (Plasmodium falciparum); experiment: ST_JUDE_LEISH: Cytotoxicity at 2uM final concentration against transgenic Leishmania Mexicana promastigotes LmPfHT that are glucose transport deficient and complemented with the Plasmodium falciparum hexose transporter. Activity is measured by DNA content using SYBR green in vitro; assay type: functional
measure_name: inhibition (%)

{"molecule": "COc1ccc2c(-c3ccccc3)noc2c1", "assay_value": 0.1}
{"molecule": "COc1ccc2nc(-c3ccccc3)cc(N/N=C/c3ccc([N+](=O)[O-])cc3)c2c1", "assay_value": 6.3}
{"molecule": "COc1ccc(-c2ccccc2CNc2nc(NCCc3ccc(O)cc3)nc(N3CCNCC3)n2)cc1", "assay_value": -0.55}
{"molecule": "COc1cc(Cc2c(C)nc3nc(N)nc(N)c3c2C)c(Br)c(OC)c1OC", "assay_value": 8.22}
{"molecule": "CC1(C)[C@H]2CC[C@@H](CNc3nc(NCCc4c[nH]cn4)nc(NCc4cc(F)ccc4F)n3)[C@@H]1C2", "assay_value": 0.62}
{"molecule": "O=C1SC(=Cc2ccc(O)c(O)c2)C(=O)N1c1ccccc1", "assay_value": 2.56}
{"molecule": "COc1ccc2[nH]c(C)cc(=NN=Cc3ccncc3)c2c1", "assay_value": -0.44}
{"molecule": "CC1(C)CN(CCC2CCC(NC(=O)/C=C/c3ccc(F)cc3F)CC2)Cc2ccc(C#N)cc21 (stereo not given)", "assay_value": 1.97}
{"molecule": "O=C(NC1CC1)c1ccc2cc(C(=O)N3Cc4ccccc4C(c4ccccc4)C3)ccc2c1 (stereo not given)", "assay_value": -0.61}
{"molecule": "CCN(CC)Cc1ccc2c(=O)cc(CCc3cccc(F)c3F)n(CC(=O)N(Cc3ccc(-c4ccc(C(F)(F)F)cc4)cc3)C(C)C)c2c1", "assay_value": 2}
{"molecule": "Cc1cccc(S(=O)(=O)Nc2cccc(CCN3CCC(N4CCCCC4)CC3)c2)c1", "assay_value": -1.11}
{"molecule": "Cc1[nH]c(C)c(-c2cc3ccccc3o2)c(=O)c1Cl", "assay_value": 1.79}
{"molecule": "COc1ccc2[nH]ccc(=NN=Cc3cccc(C)n3)c2c1", "assay_value": 14.9}
{"molecule": "Cc1cc(N/N=C/c2cccc([N+](=O)[O-])c2)c2ccc(F)cc2n1", "assay_value": 2.8}
{"molecule": "Cc1cc(Nc2ccc(C)c(C)c2)n2nc(C)nc2n1", "assay_value": 5.03}
{"molecule": "O=C1COC2(CN1CC1CCN(Cc3ccc(O)c(Cl)c3)C1)c1ccccc1-c1ccccc12 (stereo not given)", "assay_value": -0.11}
{"molecule": "COc1cc(NC(=O)N2CCc3ccc(OCCN4CCCCC4)cc32)cc(C(F)(F)F)c1", "assay_value": 1.18}
{"molecule": "O=C(/C=C/c1ccc(Cl)c(Cl)c1)NCCCCCN1CCC(NC(=O)Nc2ccc(Br)cc2)CC1", "assay_value": -0.06}
{"molecule": "Cc1cc(-c2ccc(NC(=O)Nc3ccc4nccc(N5CCN(C)CC5)c4c3)cc2C)cc(C)n1", "assay_value": 5.84}
{"molecule": "Oc1ccc2[nH]cc(C3CCN(CCC(c4ccccc4)c4ccccc4)CC3)c2c1", "assay_value": 3.07}
{"molecule": "O=C(Nc1ccc(-c2ccc(CN3CCNCC3)cc2)cc1)c1cccc(Cl)c1", "assay_value": 104}
{"molecule": "COc1cc(NC2CCCC(NCc3cn(S(=O)(=O)c4ccccc4)c4ccccc34)C2)nc2ccccc12 (stereo not given)", "assay_value": 2.28}
{"molecule": "O=C(Nc1cccc(Cl)c1Cl)N[C@H]1CCN(CCCCCNC(=O)C2CC2c2ccc(Cl)c(Cl)c2)C1 (stereo not given in full)", "assay_value": 4.52}
{"molecule": "CCNc1nc(OCC(F)(F)F)nc(N(c2ccccc2)c2ccccc2)n1", "assay_value": 1.48}
{"molecule": "COc1cc(NC(=O)c2sc(-c3ccc(Cl)cc3)cc2NC(=O)CN2CCCC2)ccc1OCCN1CCCC1", "assay_value": 9.91}
{"molecule": "Cn1ccnc1CCC(=O)Nc1ccc(Cl)cc1C(=O)Nc1ccc(Cl)cc1", "assay_value": 1.39}
{"molecule": "c1cc2c3c(cccc3c1)NC(CCCCCCCCC1=Nc3cccc4cccc(c34)N1)=N2", "assay_value": 1.67}
{"molecule": "CCN(CC)CCN(Cc1ccc(-c2ccc(C(F)(F)F)cc2)cc1)C(=O)Cn1c(CCc2cccc(C#N)c2)nc(=O)c2ccccc21", "assay_value": 1.83}
{"molecule": "O=C(NC1CCN(Cc2ccsc2)CC1)c1ccc(-c2cccc(C(F)(F)F)c2)s1", "assay_value": 9.07}
{"molecule": "FC(F)(F)c1cccc(Nc2nc(-c3ccccc3)nc3ncccc23)c1", "assay_value": 2.83}
{"molecule": "Clc1ccc(OCc2ccccc2)c(Cc2ccc(-c3nc4cnccc4[nH]3)o2)c1", "assay_value": 2.01}
{"molecule": "COc1cccc(CNC[C@@H](O)[C@H](Cc2ccccc2)NC(=O)c2cc(NC(C)C)cc(N3CCCCS3(=O)=O)c2)c1", "assay_value": 1.05}
{"molecule": "CCCCCCN1CCN(Cc2cccc(NC(=O)c3cccc(OCC)c3)c2)CC1", "assay_value": 13.5}
{"molecule": "CCCCn1c(Sc2ccc(C#N)c([N+](=O)[O-])c2)nnc1-c1ccc(OC)cc1", "assay_value": 2.64}
{"molecule": "Cc1cccc(NC(=O)N(Cc2cc3cc(C)cc(C)c3[nH]c2=O)C2CC2)c1", "assay_value": 10.1}
{"molecule": "CC(C)C1C(O)=C(c2ccc3ccccc3c2)C(=O)N1Cc1cccc(F)c1 (stereo not given)", "assay_value": 7.53}
{"molecule": "Cc1cc(N2CCC(NS(=O)(=O)c3ccc(F)cc3)CC2)nc(Nc2cccc(C#N)c2)n1", "assay_value": 46.5}
{"molecule": "O=C(CC1SC(N2N=C(c3cccs3)CC2c2ccccc2)=NC1=O)Nc1ccc(Cl)cc1 (stereo not given)", "assay_value": 2.91}
{"molecule": "CCc1nc(N)nc(N)c1-c1ccc(C(C)(C)C)cc1", "assay_value": 3.45}
{"molecule": "CCCc1ccc(S(=O)(=O)Nc2ccc3c(c2)CCC3)cc1", "assay_value": 4.05}
